Biological target: pseudo-kinase domain (JH2) of human V617F mutant JAK2 (Homo sapiens, UniProt O60674, F794H/V617F/W659A/W777A)
Construct: pseudo-kinase domain (JH2, amino-acids 536-812 with 3 surface mutations W659A, W777A, F794H); His (C)
Sequence (O60674 536-812 V617F/W659A/W777A/F794H): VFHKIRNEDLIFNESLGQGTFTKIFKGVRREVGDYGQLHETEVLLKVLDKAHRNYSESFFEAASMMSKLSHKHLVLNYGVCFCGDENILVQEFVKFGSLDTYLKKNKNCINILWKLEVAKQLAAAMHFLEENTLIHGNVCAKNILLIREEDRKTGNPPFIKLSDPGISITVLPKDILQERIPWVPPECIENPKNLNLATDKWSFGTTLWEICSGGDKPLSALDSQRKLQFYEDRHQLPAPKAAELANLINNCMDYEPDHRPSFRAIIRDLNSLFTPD
Assay: JAK2 LanthaScreen JH2-V617F Binding Assay
Settings: 50 nM Fluorescent JAK2-JH2 Tracer, 1 hour at 25° C.
measured-property: IC50

Just so you know, measured IC50 for `Cc1cccc(-c2c(-c3ccc(C(=O)N(C)C)cc3)[nH]c3nc(N)[nH]c(=O)c23)c1` came out at 500 to 1000 nM

Just so you know, measured IC50 for `CN(C)S(=O)(=O)c1ccc(-c2[nH]c3nc(N)[nH]c(=O)c3c2-c2ccccc2)cc1` came out at 100 to 500 nM

Just so you know, measured IC50 for `Cc1cccc(-c2c(-c3cccc(C(=O)N(C)C)c3)[nH]c3nc(N)[nH]c(=O)c23)c1` came out at 1000 to 2500 nM

Just so you know, measured IC50 for `CN(C)S(=O)(=O)c1ccc(-c2[nH]c3nc(N)[nH]c(=O)c3c2-c2cccc3cn[nH]c23)cc1` came out at > 2500 nM

Just so you know, measured IC50 for `Nc1nc2[nH]c(-c3ccccc3)c(-c3ccccc3C(F)(F)F)c2c(=O)[nH]1` came out at > 2500 nM

Just so you know, measured IC50 for `CNC(=O)c1ccc(-c2c(-c3ccc(S(=O)(=O)N(C)C)cc3)[nH]c3nc(N)[nH]c(=O)c23)cc1` came out at 100 to 500 nM

Just so you know, measured IC50 for `COc1ccc(OC)c(-c2c(-c3ccc(S(=O)(=O)N(C)C)cc3)[nH]c3nc(N)[nH]c(=O)c23)c1` came out at 500 to 1000 nM

Just so you know, measured IC50 for `Cc1cccc(-c2c(-c3ccc(S(=O)(=O)N(C)C)cc3)[nH]c3nc(N)[nH]c(=O)c23)c1F` came out at 100 to 500 nM

Just so you know, measured IC50 for `COc1cccc(F)c1-c1c(-c2ccc(S(=O)(=O)N(C)C)cc2)[nH]c2nc(N)[nH]c(=O)c12` came out at 500 to 1000 nM

Just so you know, measured IC50 for `CN(C)S(=O)(=O)c1ccc(-c2[nH]c3nc(N)[nH]c(=O)c3c2-c2ccccc2OC(F)F)cc1` came out at 1000 to 2500 nM

Just so you know, measured IC50 for `CN(C)S(=O)(=O)c1ccc(-c2[nH]c3nc(N)[nH]c(=O)c3c2-c2cccc3c2OCC3)cc1` came out at 100 to 500 nM

Just so you know, measured IC50 for `COc1cc2ccccc2cc1-c1c(-c2ccc(S(=O)(=O)N(C)C)cc2)[nH]c2nc(N)[nH]c(=O)c12` came out at 500 to 1000 nM
